Below, each entry is listed with its recorded TGI.
Tested on: HS 578T breast
Assay Method Text: NCI tumour cell line growth inhibition, 48 h
Outcome Measure: TGI (µM)

molecule=CC(C)(C)OC(=O)N(CCCCN(CCCNC(=O)C(F)(F)F)C(=O)OC(C)(C)C)CCCNC(=O)C(F)(F)F outcome_measure=TGI readout_relation=> quantitative_readout=100
molecule="C[N+](C)(C)CC1CCCc2ccccc2C1=O (stereo not given)" outcome_measure=TGI readout_relation== quantitative_readout=85.8
molecule="CCN(CC)CCC(CNc1ccnc2cc(Cl)ccc12)c1ccc(Cl)cc1 (stereo not given)" outcome_measure=TGI readout_relation== quantitative_readout=4.67
molecule=O=C(/C=C/c1ccccc1)CCC1C(=O)c2ccccc2C1=O outcome_measure=TGI readout_relation=> quantitative_readout=100
molecule=CCOC(=O)c1ccc(NC(=O)Oc2ccc3c(C)cc(=O)oc3c2)cc1 outcome_measure=TGI readout_relation== quantitative_readout=84.1
molecule="COc1cccc(C2c3cc4c(cc3OC(N3CCCCC3)C2C)OCO4)c1O (stereo not given)" outcome_measure=TGI readout_relation=> quantitative_readout=26.4
molecule=CCO/C(O)=C(/C(=N)N1CCOCC1)C(=O)Nc1ccc(F)cc1 outcome_measure=TGI readout_relation=> quantitative_readout=100
molecule="CC(C)C1=CC23CCC4C(C)(C(=O)O)CCCC4(C)C2CC1C1C(=O)N(c2ccc(Cc4ccc(N5C(=O)C6C7CC8C9(C)CCCC(C)(C(=O)O)C9CCC8(C=C7C(C)C)C6C5=O)cc4)cc2)C(=O)C13 (stereo not given)" outcome_measure=TGI readout_relation== quantitative_readout=32.8
molecule="Fc1ccc2c(c1)nc1n2C(c2c(Cl)cccc2Cl)SC1 (stereo not given)" outcome_measure=TGI readout_relation== quantitative_readout=34.7
molecule="O=C(O)C(O)C(O)C(O)C(O)c1nc2ccccc2s1 (stereo not given)" outcome_measure=TGI readout_relation== quantitative_readout=60.2

---

System: K-562 leukemia
Assay Method Text: NCI tumour cell line growth inhibition, 48 h; in the data active = GI50 below about 0.43 µM; inactive = the rest
Outcomes: active, inactive

molecule=Cc1cc(C)c2c(n1)sc1c(Nc3ccc(Cl)cc3)ncnc12 label=active
molecule=Nc1nn2cc(F)cnc2c1C(=O)Nc1cncc(F)c1N1CCC(C(=O)N2CCN(C3COC3)CC2)CC1 label=active
molecule=COc1cc(Nc2ncccc2C(=O)NCc2cn(Cc3cccc(Oc4ccccc4)c3)nn2)cc(OC)c1 label=inactive
molecule="CC(=O)Nc1ccc(S(=O)(=O)N2C(=O)CCC2C(=O)Nc2ccc(Br)cc2)cc1 (stereo not drawn)" label=inactive
molecule=Cc1cc(Cl)cc(OCCn2cc(F)cn2)c1-c1nc(N)nc2c1CN(C(=O)NCC(C)(F)F)C2 label=active
molecule=COc1ccc(OC)c2c1[nH]c(=O)c1c3ccccc3cn21 label=inactive
molecule=CC/C=C\C[C@H](O)C/C=C1/C(=O)C(Cl)=C[C@@H]1C/C=C\CCCC(=O)OC label=active
molecule=CCOC(=O)C1=CN(C)C=C(C(=O)OCC)C1c1cc(Br)c(OCC)c(OC)c1 label=inactive

---

Tested on: SW-620 colon
Assay Method Text: NCI tumour cell line growth inhibition, 48 h
Where a SMILES comes first, the peptide text is derived from it. The star is where a group is joined. Boc = CC(C)(C)OC(=O)*; Bn = c1ccc(C*)cc1
Outcome Measure: TGI

compound=CCN(CC)Cc1ccc(C(=S)Nc2ccc(Cl)cc2)s1 result="36.8 µM"
compound="COC(=O)C(CC(C)C)NC(=O)C(C)NC(=O)C(Cc1ccc(OCc2ccccc2)cc1)NC(=O)C(COCc1ccccc1)NC(=O)OC(C)(C)C (stereo not given) (Boc-S(Bn)Y(Bn)AL-OMe; configuration not given here)" result="> 100 µM"
compound="CCOC1(OCC)C2C=CC1C(COS(=O)(=O)c1ccc(C)cc1)C2COS(=O)(=O)c1ccc(C)cc1 (stereo not given)" result="> 100 µM"
compound=NC(=S)N/N=C/C(=O)O result="> 100 µM"
compound=Cn1cc(C2=C(c3ccc(N)cc3)C(=O)NC2=O)c2ccccc21 result="> 25 µM"
compound="COc1cc(C2C3C=CC=C4CC=CC(=C43)C3CCC(=O)N32)cc(OC)c1OC (stereo not given)" result="> 100 µM"
compound="CN1C(=O)c2ccccc2OC12C=Cc1c(ccc3ccccc13)O2 (stereo not given)" result="> 72.6 µM"
compound="CC(C)C(CCl)NC(=O)c1cccc(C(=O)N[C@H](CCl)C(C)C)n1 (stereo in doubt)" result="> 100 µM"
compound=CCO/C(O)=C(/C(=N)N1CCOCC1)C(=O)Nc1ccc(F)cc1 result="> 100 µM"
compound=CCOC(=O)c1cnc2c(ccc3[nH]n(C)nc32)c1=O result="36.8 µM"
compound="CC(=O)Nc1ccc(S(=O)(=O)N2C(=O)CCC2C(=O)Nc2ccc(Br)cc2)cc1 (stereo not given)" result="27.6 µM"
compound=C#CCOc1cccc(-c2ncc3cc(NC(=O)CCl)ccc3n2)c1 result="3.25 µM"
compound=C/C=C(\C)C(=O)O[C@H]1C=CC(=O)O[C@H]1CCC(=O)[C@H](C)O result="16.2 µM"
compound=NC(N)=NS(=O)(=O)c1ccc(NNc2c3ccccc3nc3c(C(=O)Nc4ccc(S(=O)(=O)Nc5ncccn5)cc4)cccc23)cc1 result="> 100 µM"
compound=Cc1[nH]c(=O)nc2nc3ccc(Cl)cc3c(NCCNCCO)c12 result="19.6 µM"
compound=Nc1ccc([N+](=O)[O-])cc1N=C/C=C/c1ccccc1 result="> 100 µM"
compound="CN1CC(=O)N2Cc3ccccc3-n3cccc3C2C1 (stereo not given)" result="> 100 µM"
compound=Cc1cc(C)c2c(n1)sc1c(Nc3ccc(Cl)cc3)ncnc12 result="> 100 µM"
compound="COc1ccc(C2SC(N)=Nc3c2c(C)nn3C(=O)c2ccncc2)cc1OC (stereo not given)" result="> 10 µM"
compound=CCOc1ncn(-c2ccc(NC(=S)Nc3ncccn3)cc2)n1 result="> 100 µM"

Just for reference, PubChem BioAssay (NCI) is where these values come from.
